B1: POU domain, class 4, transcription factor 1, residues 266 to 347; numbered along this chain, Q01851 (parent)
chain: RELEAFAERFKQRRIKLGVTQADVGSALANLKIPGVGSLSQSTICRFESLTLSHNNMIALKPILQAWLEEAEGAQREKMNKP

variants of: B1; assay: abundance fitness (aPCA) (normalised: wild type 0, dead -1); higher = more abundant; growth selection in yeast, the domain comes from the species named; conditions: Homo sapiens
What abundance fitness was measured for each of the following?
Note: the reply should be a number with no unit written.

Q) Sample "V24A" — what was its abundance fitness?
A) -0.241

Q) Repeat with "E4H"
A) 0.108

Q) Repeat with "K11Q"
A) -0.107

Q) Repeat with "Q21M"
A) -0.111

Q) Repeat with "L3Q"
A) -0.262

Q) Repeat with "N80M"
A) -0.004

Q) Repeat with "L64I"
A) -0.339

Q) Repeat with "K16D"
A) 0.029

Q) Repeat with "F10R"
A) -0.996

Q) Repeat with "A59R"
A) -0.051

Q) Repeat with "T51Q"
A) 0.054

Q) Repeat with "H54P"
A) 0.041

Q) Repeat with "K61G"
A) -0.305

Q) Repeat with "K16C"
A) -0.004

Q) Repeat with "E8R"
A) -0.002

Q) Repeat with "S38A"
A) -0.18

Q) Repeat with "L3T"
A) -0.26

Q) Repeat with "L68P"
A) -0.715

Q) Repeat with "L3A"
A) -0.162

Q) Repeat with "I15W"
A) -0.243

Q) Repeat with "R14Q"
A) -1.08

Q) Repeat with "A5L"
A) 0.037
